Each entry below carries its recorded pIC50.
Target: Renin (Homo sapiens)
Sequence (P00797 whole entry): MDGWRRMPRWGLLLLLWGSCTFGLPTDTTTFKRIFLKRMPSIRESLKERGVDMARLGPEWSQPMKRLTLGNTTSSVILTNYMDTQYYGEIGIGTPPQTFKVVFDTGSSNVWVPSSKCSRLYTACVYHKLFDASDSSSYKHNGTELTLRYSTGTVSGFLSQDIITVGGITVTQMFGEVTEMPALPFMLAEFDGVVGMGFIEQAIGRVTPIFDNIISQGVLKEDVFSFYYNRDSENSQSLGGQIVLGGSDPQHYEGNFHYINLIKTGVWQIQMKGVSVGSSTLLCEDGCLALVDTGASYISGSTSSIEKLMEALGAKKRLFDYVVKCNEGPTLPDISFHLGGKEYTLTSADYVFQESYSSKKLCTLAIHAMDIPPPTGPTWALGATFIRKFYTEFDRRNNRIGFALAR
Assay: Inhibitory concentration of compound against renin human plasma
Format: cell-free
pIC50: −log10 of the molar value.

molecule: CC(C)CC(NC(=O)CC(O)C(CC1CCCCC1)NC(=O)CCC(O)C(Cc1ccccc1)NC(=O)OC(C)(C)C)C(=O)NCc1cccc(CN)c1 (stereo not drawn)
pIC50: 7.66

molecule: CCC(C)CNC(=O)C(CC(C)C)CC(O)C(CC1CCCCC1)NC(=O)C(Cc1c[nH]cn1)NC(=O)C(Cc1cccc2ccccc12)Cc1cccc2ccccc12 (stereo not drawn)
pIC50: 6.77

molecule: CCC(C)CNC(=O)CC(O)C(CC(C)C)NC(=O)C(CCCC/N=C(/S)NC)NC(=O)C(Cc1ccccc1)NS(=O)(=O)N(C)C (stereo not drawn)
pIC50: 7.60
